TEST_DESCRIPTION: Metabolic stability and metabolite identity, dog liver S9 fractions
Type: in vitro ADME
TEST_CONDITIONS: pH 7.4; 1 µM FFA, dog liver S9 fractions 2 mg protein/mL

COMPOUND | half-life at 1 µM, min
CCNC(C)Cc1cccc(C(F)(F)F)c1 (racemic) | 30

###

MEASURED_TARGET: CYP2C9 (Homo sapiens)
Construct: manually incubated in duplicate with human liver microsomes (1 mg protein/mL); tissue Sekisui XenoTech, LLC; host or cells: pooled human liver microsomes (200 donors)
Sequence (P11712 whole entry): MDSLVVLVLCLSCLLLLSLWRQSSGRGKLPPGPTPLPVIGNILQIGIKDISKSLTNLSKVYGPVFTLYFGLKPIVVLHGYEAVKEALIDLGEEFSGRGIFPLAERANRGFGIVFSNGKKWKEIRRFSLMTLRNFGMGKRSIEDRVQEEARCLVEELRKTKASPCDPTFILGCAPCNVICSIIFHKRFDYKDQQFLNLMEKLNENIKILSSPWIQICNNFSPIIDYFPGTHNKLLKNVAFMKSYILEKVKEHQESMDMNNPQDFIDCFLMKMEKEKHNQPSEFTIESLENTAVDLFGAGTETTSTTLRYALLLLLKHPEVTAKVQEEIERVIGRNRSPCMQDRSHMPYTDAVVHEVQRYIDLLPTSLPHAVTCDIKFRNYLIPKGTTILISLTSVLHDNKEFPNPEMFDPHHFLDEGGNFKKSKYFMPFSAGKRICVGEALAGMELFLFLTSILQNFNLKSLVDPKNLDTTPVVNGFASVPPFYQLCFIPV
TEST_DESCRIPTION: Chemical inhibition of FFA metabolism in human liver microsomes, CYP2C9
Type: in vitro ADME
TEST_CONDITIONS: human, liver microsomes, probe FFA (1 µM), demethylation to nFFA, inhibitor 20 µM, metabolism-dependent, read-out: Reduction in FFA demethylation (percent inhibition by a selective inhibitor)

INPUT_SMILES | inhibition at 60 min, 20 µM
O=C(O)COc1ccc(C(=O)c2cccs2)c(Cl)c1Cl | < 15%

Where these numbers come from: paper PMC9124820
